Catalogue of Estimated IC50 (concentration required to inhibit aggregation by 50%) readings, one per entry.
- Test system: collagen-induced platelet aggregation in rabbit plasma
- experimentDescription: Inhibition of collagen-induced platelet aggregation in rabbit plasma
- Format: cell-based
- conditionSummary: Table III
Numeric only. Scale: mM

> print(dat)
                                   compound  endpointvalue
1         O=C(O)c1ccccc1Nc1cccc(C(F)(F)F)c1          0.002
2  CC(=O)Oc1ccccc1C(=O)O [Acetylsalicylic Acid, reference compound]          0.023

Q: # returns recorded Estimated IC50 (concentration required to inhibit aggregation by 50%) (system: collagen-induced platelet aggregation in rabbit plasma) for `CCCCC1C(=O)N(c2ccccc2)N(c2ccccc2)C1=O`
Result: 0.15

Q: Would you kindly repeat that for Nc1c(CC(=O)O)cccc1C(=O)c1ccccc1 [Example 8, Dihydrate] ?
Result: 0.0002
